Please go through the items and note down their Ester in aqueous layer, percent hydrolysis.
# PROCEDURE_SUMMARY: Extraction of amino acid ester from aqueous mineral acid salt solution into 1,2-dichloroethane at constant pH (Table 1)
# STATED_CONDITIONS: pH 6.5, 20-25 °C, 1,2-dichloroethane

- Cl.N[C@@H](Cc1ccccc1)C(=O)Oc1ccccc1 [Phenyl L-phenylalaninate hydrochloride]: 0%
- COC(=O)[C@@H](N)CO.Cl [Methyl L-serinate hydrochloride]: 0%

// next item, Ester in aqueous layer, percent hydrolysis requested
Query :: Give its Ester in aqueous layer, percent hydrolysis value. Item: COC(=O)CCCN.Cl [Methyl γ-aminobutyrate hydrochloride]
Result :: 0%
